In this section, each of the compounds is paired with its reported relative viability.
- Test system: LC-2-ad
- test summary: relative viability (nuclei count vs DMSO), 5 days (fraction); higher = more cells survive
- setup conditions: first compound 0.4 µM

>  <compound>
COc1cc(N2CCC(C(N)=O)CC2)ccc1Nc1nc(N)c(Cl)c(Nc2ccccc2S(=O)(=O)C(C)C)n1 [HG-5-88-01] + C[C@]1(O)C[C@@H](c2nc(-c3ccc4ccc(-c5ccccc5)nc4c3)c3c(N)nccn32)C1 [Linsitinib] (partner 1 µM)

>  <relative viability>
0.862

$$$$
>  <compound>
Clc1ccc(Nc2nnc(Cc3ccncc3)c3ccccc23)cc1 [Vatalanib] + Nc1ncn([C@H]2C[C@H](O)[C@@H](CO)O2)c(=O)n1 [Decitabine] (partner 2 µM)

>  <relative viability>
0.768

$$$$
>  <compound>
Clc1ccc(Nc2nnc(Cc3ccncc3)c3ccccc23)cc1 [Vatalanib] + Nc1nc2[nH]cc(CCc3ccc(C(=O)N[C@@H](CCC(=O)O)C(=O)O)cc3)c2c(=O)[nH]1 [Pemetrexed] (partner 0.2 µM)

>  <relative viability>
0.275

$$$$
>  <compound>
Clc1ccc(Nc2nnc(Cc3ccncc3)c3ccccc23)cc1 [Vatalanib] + O=C(CCCCCCC(=O)Nc1ccccc1)NO [Vorinostat] (partner 1 µM)

>  <relative viability>
0.768

$$$$
>  <compound>
C[C@@H]1CN(CC(=O)Nc2ccc3c(c2)Cc2cccc(-c4cc(=O)cc(N5CCOCC5)o4)c2S3)C[C@H](C)O1 + CC(=O)c1c(C)c2cnc(Nc3ccc(N4CCNCC4)cn3)nc2n(C2CCCC2)c1=O [Palbociclib] (partner 0.5 µM)

>  <relative viability>
0.466

$$$$

These measurements were taken from the supplement of paper PMC10307832.
